target_entity: T1, His-tagged CEACAM1 (human, UniProt P13688 35-428)
T1 construct: 45 kDa SPR analyte; also called CEACAM1-HIS; CEACAM1 analyte
T1 sequence: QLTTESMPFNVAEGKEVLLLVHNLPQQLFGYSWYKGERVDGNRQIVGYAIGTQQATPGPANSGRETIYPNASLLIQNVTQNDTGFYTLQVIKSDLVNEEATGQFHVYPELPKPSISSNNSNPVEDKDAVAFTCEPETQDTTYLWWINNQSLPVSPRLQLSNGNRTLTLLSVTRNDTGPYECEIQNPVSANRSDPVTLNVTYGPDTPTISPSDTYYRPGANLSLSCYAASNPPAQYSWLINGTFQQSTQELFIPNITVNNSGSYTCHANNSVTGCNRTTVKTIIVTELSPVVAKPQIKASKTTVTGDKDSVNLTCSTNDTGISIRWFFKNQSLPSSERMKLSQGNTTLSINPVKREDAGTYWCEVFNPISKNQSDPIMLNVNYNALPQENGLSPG
experiment_description: SPR single-cycle, supernatant IgG captured
# key: entry, value: relative KD to parent

binder	relative KD to parent
VH1/Vκ8 S29A (antibody, IgG4, V domains shown, IgG4 (S241P), kappa; also called Parent; Parent (VH1/Vκ8 S29A)) VH: EVQLLESGGGLVQPGGSLRLSCAASGFIFSSHGMSWVRQAPGKGLEWVATISSGGTYTYYPDSVKGRFTISRDNSKNTLYLQMNSLKAEDTAMYYCARHDFDYDAAWFAYWGQGTLVTVSS VL: EIVLTQSPATLSLSPGERATLSCRANSAVSYMYWYQQKPGQAPRPWIYLTSNRATGVPARFSGSGSGTDYTLTISSLEPEDFAVYYCQQWSSNPPTFGQGTKLEIK	1
CP09E03/Vκ8 S29A (antibody, IgG4, V domains shown, IgG4 (S241P), kappa) VH: EVQLLESGGGLVQPGGSLRLSCAASGFTFSAHAISWVRQAPGKGLEWVATISSGGTYTYYPDSVKGRFTISRDNSKNTLYLQMNSLKAEDTAMYYCARHDFDYDAAWFAYWGQGTLVTVSS VL: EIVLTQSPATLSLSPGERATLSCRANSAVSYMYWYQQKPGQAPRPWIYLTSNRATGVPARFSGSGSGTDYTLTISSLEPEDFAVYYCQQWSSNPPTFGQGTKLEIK	1.6
VH1/CP09F05 (antibody, IgG4, V domains shown, IgG4 (S241P), kappa) VH: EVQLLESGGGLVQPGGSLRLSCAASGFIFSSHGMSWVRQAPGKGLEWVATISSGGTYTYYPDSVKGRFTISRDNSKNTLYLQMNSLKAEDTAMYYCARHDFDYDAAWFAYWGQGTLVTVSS VL: EIVLTQSPATLSLSPGERATLSCRANSAVSYMYWYQQKPGQAPRPWIYLTSNRATGVPARFSGSGSGTDYTLTISSLEPEDFAVYYCQQNTALPFTFGQGTKLEIK	0.4
CP08B06/Vκ8 S29A (antibody, IgG4, V domains shown, IgG4 (S241P), kappa) VH: EVQLLESGGGLVQPGGSLRLSCAASGFSFNSHAISWVRQAPGKGLEWVATISSGGTYTYYPDSVKGRFTISRDNSKNTLYLQMNSLKAEDTAMYYCARHDFDYDAAWFAYWGQGTLVTVSS VL: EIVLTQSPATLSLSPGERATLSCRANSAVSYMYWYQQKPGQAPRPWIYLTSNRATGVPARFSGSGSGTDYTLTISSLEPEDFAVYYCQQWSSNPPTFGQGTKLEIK	1.3
VH1/CP08D02 (antibody, IgG4, V domains shown, IgG4 (S241P), kappa; also called Parent VH/CP08D02) VH: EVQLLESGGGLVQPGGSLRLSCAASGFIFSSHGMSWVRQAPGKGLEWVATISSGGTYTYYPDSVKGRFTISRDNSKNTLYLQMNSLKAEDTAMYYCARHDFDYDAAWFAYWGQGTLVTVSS VL: EIVLTQSPATLSLSPGERATLSCRANSAVSYMYWYQQKPGQAPRPWIYLTSNRATGVPARFSGSGSGTDYTLTISSLEPEDFAVYYCQQWTSFPPTFGQGTKLEIK	6.2
CP08H01/Vκ8 S29A (antibody, IgG4, V domains shown, IgG4 (S241P), kappa) VH: EVQLLESGGGLVQPGGSLRLSCAASGFIFSSHGMSWVRQAPGKGLEWVATISSGGTYTYYPDSVKGRFTISRDNSKNTLYLQMNSLKAEDTAMYYCAKHPPDYFAAWFAYWGQGTLVTVSS VL: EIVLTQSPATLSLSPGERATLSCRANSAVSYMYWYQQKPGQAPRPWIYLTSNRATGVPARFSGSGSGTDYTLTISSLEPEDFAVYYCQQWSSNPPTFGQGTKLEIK	1.3
CP08B01/Vκ8 S29A (antibody, IgG4, V domains shown, IgG4 (S241P), kappa) VH: EVQLLESGGGLVQPGGSLRLSCAASGFTFSAHAMSWVRQAPGKGLEWVATISSGGTYTYYPDSVKGRFTISRDNSKNTLYLQMNSLKAEDTAMYYCARHDFDYDAAWFAYWGQGTLVTVSS VL: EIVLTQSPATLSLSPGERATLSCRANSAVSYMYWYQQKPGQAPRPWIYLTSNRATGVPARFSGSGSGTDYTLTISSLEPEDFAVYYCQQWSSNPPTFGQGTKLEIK	0.9
